Assay Overview: Pharmacokinetic evaluation in rats
Format: in vivo
Applied Conditions: male, Sprague-Dawley, rat, plasma, po, 3 mg/kg, 3 mg/kg by gavage, group G2, rat 5
Entries annotated with measured Cmax
Measurement Name: Cmax (ng/mL)

compound="[2H]C1([2H])COCC([2H])([2H])N1c1ccc(Nc2nccc(-c3ccc(C(=O)NCC#N)cc3)n2)cc1 [example 5]" data_value=1410
compound="N#CCNC(=O)c1ccc(-c2ccnc(Nc3ccc(N4CCOCC4)cc3)n2)cc1 [example 9, reference compound]" data_value=858

###

# key: entry, value: AUC(0-t)
Assay Overview: Pharmacokinetic evaluation in rats
Assay type: in vivo
Applied Conditions: male, Sprague-Dawley, rat, plasma, po, 3 mg/kg, 3 mg/kg by gavage, group G2, rat 7
Measurement Name: AUC(0-t) (ng·h/mL)

compound="N#CCNC(=O)c1ccc(-c2ccnc(Nc3ccc(N4CCOCC4)cc3)n2)cc1 [example 9, reference compound]" data_value=3180
compound=[2H]C1([2H])COCC([2H])([2H])N1c1ccc(Nc2nccc(-c3ccc(C(=O)NCC#N)cc3)n2)cc1 data_value=5470

###

Assay Overview: Pharmacokinetic evaluation in rats
Format: in vivo
Applied Conditions: male, Sprague-Dawley, rat, plasma, po, 3 mg/kg, 3 mg/kg by gavage, group G1, rat 3
Measurement Name: AUC(0-t) (ng·h/mL)

compound="[2H]C([2H])(C#N)NC(=O)c1ccc(-c2ccnc(Nc3ccc(N4CC([2H])([2H])OC([2H])([2H])C4)cc3)n2)cc1 [example 6]" data_value=2840
compound="[2H]C([2H])(C#N)NC(=O)c1ccc(-c2ccnc(Nc3ccc(N4CCOCC4)cc3)n2)cc1 [example 8]" data_value=3050
compound="N#CCNC(=O)c1ccc(-c2ccnc(Nc3ccc(N4CCOCC4)cc3)n2)cc1 [example 9, reference compound]" data_value=2440

###

Items are presented alongside their recorded Tmax.
Assay Overview: Pharmacokinetic evaluation in rats
Assay type: in vivo
Applied Conditions: male, Sprague-Dawley, rat, plasma, po, 3 mg/kg, 3 mg/kg by gavage, group G3, rat 11
Measurement Name: Tmax (h)

molecule="N#CCNC(=O)c1ccc(-c2ccnc(Nc3ccc(N4CCOCC4)cc3)n2)cc1 [example 9, reference compound]" measurement_name=Tmax unit_annotation=h data_value=2
molecule=[2H]C([2H])(C#N)NC(=O)c1ccc(-c2ccnc(Nc3ccc(N4C([2H])([2H])C([2H])([2H])OC([2H])([2H])C4([2H])[2H])cc3)n2)cc1 measurement_name=Tmax unit_annotation=h data_value=2
molecule=[2H]C1([2H])OC([2H])([2H])C([2H])([2H])N(c2ccc(Nc3nccc(-c4ccc(C(=O)NCC#N)cc4)n3)cc2)C1([2H])[2H] measurement_name=Tmax unit_annotation=h data_value=2

###

# AUC(0-t) per entry
Assay Overview: Pharmacokinetic evaluation in rats
Format: in vivo
Applied Conditions: male, Sprague-Dawley, rat, plasma, po, 3 mg/kg, 3 mg/kg by gavage, group G1, rat 1
Measurement Name: AUC(0-t) (ng·h/mL)

compound="[2H]C([2H])(C#N)NC(=O)c1ccc(-c2ccnc(Nc3ccc(N4CCOCC4)cc3)n2)cc1 [example 8]" unit_annotation=ng·h/mL data_value=3090
compound="N#CCNC(=O)c1ccc(-c2ccnc(Nc3ccc(N4CCOCC4)cc3)n2)cc1 [example 9, reference compound]" unit_annotation=ng·h/mL data_value=2290
compound="[2H]C([2H])(C#N)NC(=O)c1ccc(-c2ccnc(Nc3ccc(N4CC([2H])([2H])OC([2H])([2H])C4)cc3)n2)cc1 [example 6]" unit_annotation=ng·h/mL data_value=2730

###

Assay Overview: Pharmacokinetic evaluation in rats
Assay type: in vivo
Applied Conditions: male, Sprague-Dawley, rat, plasma, po, 3 mg/kg, 3 mg/kg by gavage, group G1, rat 4
Method: 12 male Sprague-Dawley rats, 7-8 weeks old, of approximately 200 g body weight, were divided into three groups, four in each group. Rats were feed with standard feed, and were given water, and were started to fast 16 hours before the test. […] After blood sampling, the tube was gently inverted at least 5 times immediately to ensure adequate mixing, and was placed on ice. […] The concentration of the compound of the invention in plasma was determined with LC-MS/MS. […]
Reported Cmax values for a set of compounds
Measurement Name: Cmax (ng/mL)

compound=[2H]C([2H])(C#N)NC(=O)c1ccc(-c2ccnc(Nc3ccc(N4CCOCC4)cc3)n2)cc1 data_value=227
compound="N#CCNC(=O)c1ccc(-c2ccnc(Nc3ccc(N4CCOCC4)cc3)n2)cc1 [example 9, reference compound]" data_value=180
compound=[2H]C([2H])(C#N)NC(=O)c1ccc(-c2ccnc(Nc3ccc(N4CC([2H])([2H])OC([2H])([2H])C4)cc3)n2)cc1 data_value=207

###

Assay Overview: Pharmacokinetic evaluation in rats
Assay type: in vivo
Applied Conditions: male, Sprague-Dawley, rat, plasma, po, 3 mg/kg, 3 mg/kg by gavage, group G2 (Table 2), mean±SD
# maps each entry to its Cmax
Measurement Name: Cmax

compound=[2H]C1([2H])COCC([2H])([2H])N1c1ccc(Nc2nccc(-c3ccc(C(=O)NCC#N)cc3)n2)cc1 measurement_name=Cmax data_value="972 ng/mL"
compound="N#CCNC(=O)c1ccc(-c2ccnc(Nc3ccc(N4CCOCC4)cc3)n2)cc1 [example 9, reference compound]" measurement_name=Cmax data_value="589 ng/mL"

###

# AUC(0-inf) listing for each entry below
Assay Overview: Pharmacokinetic evaluation in rats
Type: in vivo
Applied Conditions: male, Sprague-Dawley, rat, plasma, po, 3 mg/kg, 3 mg/kg by gavage, group G3, rat 9, read-out: AUCINF_obs
Measurement Name: AUC(0-inf) (ng·h/mL)

compound=[2H]C1([2H])OC([2H])([2H])C([2H])([2H])N(c2ccc(Nc3nccc(-c4ccc(C(=O)NCC#N)cc4)n3)cc2)C1([2H])[2H] measurement_name=AUC(0-inf) unit_annotation=ng·h/mL data_value=6300
compound=[2H]C([2H])(C#N)NC(=O)c1ccc(-c2ccnc(Nc3ccc(N4C([2H])([2H])C([2H])([2H])OC([2H])([2H])C4([2H])[2H])cc3)n2)cc1 measurement_name=AUC(0-inf) unit_annotation=ng·h/mL data_value=4180
compound="N#CCNC(=O)c1ccc(-c2ccnc(Nc3ccc(N4CCOCC4)cc3)n2)cc1 [example 9, reference compound]" measurement_name=AUC(0-inf) unit_annotation=ng·h/mL data_value=3480

###

Assay Overview: Pharmacokinetic evaluation in rats
Format: in vivo
Applied Conditions: male, Sprague-Dawley, rat, plasma, po, 3 mg/kg, 3 mg/kg by gavage, group G3, rat 10
Measurement Name: Cmax (ng/mL)

compound="N#CCNC(=O)c1ccc(-c2ccnc(Nc3ccc(N4CCOCC4)cc3)n2)cc1 [example 9, reference compound]" data_value=336
compound=[2H]C1([2H])OC([2H])([2H])C([2H])([2H])N(c2ccc(Nc3nccc(-c4ccc(C(=O)NCC#N)cc4)n3)cc2)C1([2H])[2H] data_value=596
compound=[2H]C([2H])(C#N)NC(=O)c1ccc(-c2ccnc(Nc3ccc(N4C([2H])([2H])C([2H])([2H])OC([2H])([2H])C4([2H])[2H])cc3)n2)cc1 data_value=419

###

# Tmax listing for each entry below
Assay Overview: Pharmacokinetic evaluation in rats
Format: in vivo
Applied Conditions: male, Sprague-Dawley, rat, plasma, po, 3 mg/kg, 3 mg/kg by gavage, group G2, rat 6
Measurement Name: Tmax (h)

molecule="N#CCNC(=O)c1ccc(-c2ccnc(Nc3ccc(N4CCOCC4)cc3)n2)cc1 [example 9, reference compound]" data_value=4
molecule=[2H]C1([2H])COCC([2H])([2H])N1c1ccc(Nc2nccc(-c3ccc(C(=O)NCC#N)cc3)n2)cc1 data_value=4

###

Assay Overview: Pharmacokinetic evaluation in rats
Type: in vivo
Applied Conditions: male, Sprague-Dawley, rat, plasma, po, 3 mg/kg, 3 mg/kg by gavage, group G3, Mean of 4 rats
Here the recorded AUC(0-t) is given for each entry.
Measurement Name: AUC(0-t)

molecule=[2H]C1([2H])OC([2H])([2H])C([2H])([2H])N(c2ccc(Nc3nccc(-c4ccc(C(=O)NCC#N)cc4)n3)cc2)C1([2H])[2H] measurement_name=AUC(0-t) data_value="3960 ng·h/mL"
molecule="N#CCNC(=O)c1ccc(-c2ccnc(Nc3ccc(N4CCOCC4)cc3)n2)cc1 [example 9, reference compound]" measurement_name=AUC(0-t) data_value="2190 ng·h/mL"
molecule=[2H]C([2H])(C#N)NC(=O)c1ccc(-c2ccnc(Nc3ccc(N4C([2H])([2H])C([2H])([2H])OC([2H])([2H])C4([2H])[2H])cc3)n2)cc1 measurement_name=AUC(0-t) data_value="2720 ng·h/mL"

###

Assay Overview: Pharmacokinetic evaluation in rats
Assay type: in vivo
Applied Conditions: male, Sprague-Dawley, rat, plasma, po, 3 mg/kg, 3 mg/kg by gavage, group G1 (Table 1), mean±SD
Below: a set of entries, each annotated with reported Cmax.
Measurement Name: Cmax (ng/mL)

molecule="[2H]C([2H])(C#N)NC(=O)c1ccc(-c2ccnc(Nc3ccc(N4CCOCC4)cc3)n2)cc1 [example 8]" measurement_name=Cmax data_value=309
molecule="[2H]C([2H])(C#N)NC(=O)c1ccc(-c2ccnc(Nc3ccc(N4CC([2H])([2H])OC([2H])([2H])C4)cc3)n2)cc1 [example 6]" measurement_name=Cmax data_value=282
molecule="N#CCNC(=O)c1ccc(-c2ccnc(Nc3ccc(N4CCOCC4)cc3)n2)cc1 [example 9, reference compound]" measurement_name=Cmax data_value=245

Each recorded value in this set is attributed to patent US9604935B2.
